assay_details: Volume of distribution at steady state in cystic fibrosis patient at 4 g, iv
Assay type: ADME, organism-based
measurement_setup: human, in vivo, read-out: Vdss
experimental_endpoint: Vd (L)

CCN1CCN(C(=O)N[C@@H](C(=O)N[C@@H]2C(=O)N3[C@@H]2SC(C)(C)[C@@H]3C(=O)O)c2ccccc2)C(=O)C1=O [PIPERACILLIN]; 8.13

* * *

assay_details: Peak drug level in cystic fibrosis patient at 4 g, iv
Assay type: ADME, organism-based
measurement_setup: human, in vivo, read-out: Drug uptake
experimental_endpoint: Cmax (µg/mL)

CCN1CCN(C(=O)N[C@@H](C(=O)N[C@@H]2C(=O)N3[C@@H]2SC(C)(C)[C@@H]3C(=O)O)c2ccccc2)C(=O)C1=O [PIPERACILLIN]; 767
